List of composite z-score values.
Assay: small-molecule binders of probe aNOTCH3, primary screen, biochemical, small-molecule microarray, 635/667 nm fluorescence (AID 1120);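 note: probe is a biotin-tagged antibody raised against NOTCH3 rather than NOTCH3 protein; score merges spot fluorescence near 667 nm with spot signal to noise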
Settings: higher = more signal
When you answer, write just the number.

compound=O=C1C[C@@](C(=O)NC2CC2)(c2ccc([N+](=O)[O-])cc2)[C@@H](c2ccc(CO)cc2I)N1C1CCCCC1 property_name="composite z-score" recorded_value=0.0596
compound="CN1C(=O)C2C=CC(C(O)c3ccc([N+](=O)[O-])cc3)N(N3CCCCC3)C2C1=O (stereo not given)" property_name="composite z-score" recorded_value=0.246

Q: Determine its reported composite z-score: CC(=O)NCCCC[C@@H]1NC(=O)[C@@H]2C[C@H](C(=O)NCCCCCNC(=O)CS)[C@H](c3cccc(OCCO)c3)N2C1=O
A: -0.205

Q: Identify the reported composite z-score for the following entry. CC[C@@H]1C=C(C(=O)O)[C@H](c2ccc(Br)cc2)N1S(=O)(=O)c1ccc(C)cc1
A: 0.167

Q: Provide measured composite z-score value, entry: COC(=O)[C@H](Cc1ccccc1)N1CC2=C[C@@H](C3CC3)n3c(=O)n(C)c(=O)n3[C@H]2[C@@H]1[C@@H](O)Cc1ccccc1
A: 0.0562

====

Experiment: fission yeast growth modulation, primary screen, strain 972, OD600, 24 h, no modulator (AID 1090);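 note: basal condition with compound alone and no growth modifier present; test concentration not given here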
Settings: S. pombe 972 growth, higher = more signal, called active from +8 up or from −8 down
Recorded z-score values for a group of molecules are listed next.
Answer as a number with no unit attached.

Below, each entry is followed by its recorded z-score result.
molecule=CCCC[C@@H]1C[C@H]1[C@@H](NC(=O)c1cccs1)c1ccc(-c2ccccc2)cc1 property_name=z-score recorded_value=-3.7
molecule=CCCC#C[Si](O[C@H](CC)c1cn(Cc2cccc(Cl)c2)nn1)(C(C)C)C(C)C property_name=z-score recorded_value=-9.34
molecule=O=C(c1ccccc1)N1C(=O)[C@]2(COC(c3ccc(OCCCO)cc3)=N2)Cc2ccccc21 property_name=z-score recorded_value=0.901
molecule=NC(=O)[C@@H]1[C@H]2C(=O)O[C@H](c3ccccc3)[C@H](c3ccccc3)N2[C@H](c2ccc(O)cc2)[C@@]12C(=O)Nc1ccccc12 property_name=z-score recorded_value=-1.41
molecule=Oc1ccc2cc[n+](Cc3sc4ccccc4c3Cl)cc2c1 property_name=z-score recorded_value=-1.43

Q: Specify z-score for CCS[C@H]1[C@@H](C(=O)O)[C@H](c2ccc(C)cc2)N(S(=O)(=O)c2ccc(C)cc2)[C@@H]1CC and stop.
A: 0.588

Q: Give z-score for [N-]=[N+]=NCc1ccccc1[C@@H]1OC(c2ccc(OCCCO)cc2)=N[C@]1(Cc1ccccc1)C(N)=O
A: -2.27

====

Experiment: Plasmodium falciparum growth inhibition, primary screen, strain 3D7, DAPI fluorescence, 100 nL (AID 1184);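 note: parasites grown inside human red blood cells in medium with human serum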
Settings: P. falciparum 3D7 growth, 3 d, higher = more signal
property.name: z-score

Illustrative cases are given below, each with its answer.
compound=COCCOC(=O)N1C(=O)[C@@]2(c3cc(C#Cc4ccc(OC)cc4)ccc31)[C@H](c1ccc(OCCO)cc1)N1[C@H](c3ccccc3)[C@H](c3ccccc3)OC(=O)[C@H]1[C@@H]2C(=O)N1CCN(c2ncccn2)CC1 recorded_value=-1.84
compound=Cc1ccc([C@@H]2C[C@@H](Sc3ccccc3)[C@H](C(=O)O)CN2S(=O)(=O)c2ccc(C)cc2)cc1 recorded_value=-0.706
compound="CCCCN1CC=CC23O[C@@H]4C=CCCOC(=O)C4[C@H]2C(=O)N(CCCCCCO)[C@@H]3C1=O (some centres undefined)" recorded_value=-0.35

Q: Entry CC(C)NC(=O)[C@@]1(c2ccc([N+](=O)[O-])cc2)CC(=O)N(C2CCCCC2)[C@@H]1c1ccc(CO)cc1I needs its z-score filled in; supply it.
A: -1.63
